Listed compounds paired with reported IC50
target: Cytochrome P450 2D6 (Homo sapiens, UniProt P10635)
Sequence (P10635 whole entry): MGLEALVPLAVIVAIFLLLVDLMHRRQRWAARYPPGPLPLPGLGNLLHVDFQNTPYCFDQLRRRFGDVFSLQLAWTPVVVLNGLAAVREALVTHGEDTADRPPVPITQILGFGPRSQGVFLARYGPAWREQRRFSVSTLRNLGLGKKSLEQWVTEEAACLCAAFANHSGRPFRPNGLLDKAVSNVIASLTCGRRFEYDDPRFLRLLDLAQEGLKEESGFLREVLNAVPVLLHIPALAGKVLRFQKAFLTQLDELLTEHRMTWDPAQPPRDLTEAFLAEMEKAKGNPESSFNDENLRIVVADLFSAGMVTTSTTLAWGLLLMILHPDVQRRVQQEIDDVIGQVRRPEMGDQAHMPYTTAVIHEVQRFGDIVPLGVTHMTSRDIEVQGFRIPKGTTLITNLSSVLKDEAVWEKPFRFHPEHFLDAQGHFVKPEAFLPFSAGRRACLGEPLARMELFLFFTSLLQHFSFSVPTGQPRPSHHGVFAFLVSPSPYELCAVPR

>  <smiles>
CCc1c(C)nc(-c2ccc(Cl)s2)nc1Nc1ccc(CC(=O)O)cc1

>  <recorded-endpoint>
IC50

>  <assay-value>
> 10 µM

$$$$

I have this compound here, CCc1c(C)nc(-c2ccc(F)s2)nc1Nc1ccc(CC(=O)O)cc1F , and I need its recorded IC50.
> 10 µM

* * *

assay: Inhibition of PDE1
recorded-endpoint: IC50

Fill in: IC50 of CCc1c(C)nc(-c2ccc(Cl)s2)nc1Nc1ccc(CC(=O)O)cc1 is ___
> 2000 nM
